# Assay Remarks: Growth inhibition of human A2780/ADR cells after 72 hrs by MTT assay
# Assay type: cell-based
Listed here are molecules together with their documented GI50 at 72 h.
Reported Endpoint: GI50 at 72 h (µM)

> print(dat)
                               entry.smiles  reported.endpoint  readout.units  numeric.value
1  COc1ccc(-c2c(OCC(=O)Nc3cccc4ccccc34)oc3ccccc3c2=O)cc1OC       GI50 at 72 h             µM           45.3
2  Cc1ccc(-c2c(OCC(=O)Nc3cccc4ccccc34)oc3ccccc3c2=O)cc1       GI50 at 72 h             µM           98.6
3  O=C(COc1c(-c2ccccc2Cl)oc2ccccc2c1=O)Nc1ccc2c(c1)COC2=O       GI50 at 72 h             µM           69.2

* * *

# Assay Remarks: Growth inhibition of MDCK2 cells after 72 hrs by MTT assay
# Format: cell-based, Canis lupus familiaris, MDCK-II
# Measurement Conditions: dog
Lab note - cut at 40 µM for GI50 at 72 h: Satisfied if strictly below, Not satisfied if not.

> print(dat)
                                entry.smiles          label
 1  COc1cc(/C=C/C(=O)c2ccc(OCC(=O)NCc3ccc4c(c3)OCO4)cc2)cc(OC)c1OC  Not satisfied
 2  COc1ccc(-c2c(OCC(=O)Nc3cccc4ccccc34)oc3ccccc3c2=O)cc1OC  Not satisfied
 3       CCCOc1ccc(/C=C/C(=O)c2ccc(O)cc2)cc1      Satisfied
 4  COc1cccc(/C=C/C(=O)c2ccc(OCC(=O)Nc3ccc(OC)c(OC)c3)cc2)c1      Satisfied
 5  COc1ccc(NC(=O)COc2ccc(C(=O)/C=C/c3cc(OC)c(OC)c(OC)c3)cc2)cc1OC      Satisfied
 6  COc1ccc(-c2c(OCC(=O)Nc3cccc4ccccc34)oc3ccccc3c2=O)cc1  Not satisfied
 7  O=C(COc1c(-c2ccccc2Cl)oc2ccccc2c1=O)Nc1ccc2c(c1)COC2=O  Not satisfied
 8  COc1ccc(NC(=O)COc2ccc(C(=O)/C=C/c3c(F)cccc3F)cc2)cc1OC      Satisfied
 9  COc1cc(C(=O)/C=C/c2cc(OC)c(OC)c(OC)c2)ccc1O      Satisfied
10  O=C(COc1cccc(C(=O)/C=C/c2ccccc2)c1)Nc1ccc2c(c1)COC2=O      Satisfied

* * *

# Assay Remarks: Growth inhibition of MDCK2 cells expressing BCRP (unknown origin) after 72 hrs by MTT assay
# Assay type: ADME, cell-based, Canis lupus familiaris, MDCK-II
# Measurement Conditions: dog
For each record, check the reported GI50 at 72 h: if it is below 30 µM write rule met, else write rule not met.

> print(dat)
                                entry.smiles         label
 1       CCCOc1ccc(/C=C/C(=O)c2ccc(O)cc2)cc1      rule met
 2  COc1ccc(NC(=O)COc2ccc(C(=O)/C=C/c3c(F)cccc3F)cc2)cc1OC  rule not met
 3  O=C(COc1cccc(C(=O)/C=C/c2ccccc2)c1)Nc1ccc2c(c1)COC2=O      rule met
 4  O=C(COc1c(-c2ccccc2Cl)oc2ccccc2c1=O)Nc1ccc2c(c1)COC2=O  rule not met
 5  COc1cccc(/C=C/C(=O)c2ccc(OCC(=O)Nc3ccc(OC)c(OC)c3)cc2)c1  rule not met
 6  COc1cc(C(=O)/C=C/c2cc(OC)c(OC)c(OC)c2)ccc1O      rule met
 7  COc1ccc(-c2c(OCC(=O)Nc3cccc4ccccc34)oc3ccccc3c2=O)cc1OC  rule not met
 8  COc1ccc(NC(=O)COc2ccc(C(=O)/C=C/c3cc(OC)c(OC)c(OC)c3)cc2)cc1OC      rule met
 9  COc1ccc(-c2c(OCC(=O)Nc3cccc4ccccc34)oc3ccccc3c2=O)cc1  rule not met
10  COc1cc(/C=C/C(=O)c2ccc(OCC(=O)NCc3ccc4c(c3)OCO4)cc2)cc(OC)c1OC  rule not met

* * *

# Tested on: ABCB1 (P-gp)
# Assay Remarks: Therapeutic index, ratio of GI50 for human A2780/ADR cells to EC50 for ABCB1 in human A2780/ADR cells
# Assay type: toxicity, cell-based
Reported Endpoint: selectivity ratio

> print(dat)
                               entry.smiles  result
1  COc1ccc(-c2c(OCC(=O)Nc3cccc4ccccc34)oc3ccccc3c2=O)cc1OC     8.3
2  O=C(COc1c(-c2ccccc2Cl)oc2ccccc2c1=O)Nc1ccc2c(c1)COC2=O    13.8
3  Cc1ccc(-c2c(OCC(=O)Nc3cccc4ccccc34)oc3ccccc3c2=O)cc1    52.2

* * *

# Target: Multidrug resistance-associated protein 1 (Homo sapiens, UniProt P33527)
# Sequence (P33527 whole entry): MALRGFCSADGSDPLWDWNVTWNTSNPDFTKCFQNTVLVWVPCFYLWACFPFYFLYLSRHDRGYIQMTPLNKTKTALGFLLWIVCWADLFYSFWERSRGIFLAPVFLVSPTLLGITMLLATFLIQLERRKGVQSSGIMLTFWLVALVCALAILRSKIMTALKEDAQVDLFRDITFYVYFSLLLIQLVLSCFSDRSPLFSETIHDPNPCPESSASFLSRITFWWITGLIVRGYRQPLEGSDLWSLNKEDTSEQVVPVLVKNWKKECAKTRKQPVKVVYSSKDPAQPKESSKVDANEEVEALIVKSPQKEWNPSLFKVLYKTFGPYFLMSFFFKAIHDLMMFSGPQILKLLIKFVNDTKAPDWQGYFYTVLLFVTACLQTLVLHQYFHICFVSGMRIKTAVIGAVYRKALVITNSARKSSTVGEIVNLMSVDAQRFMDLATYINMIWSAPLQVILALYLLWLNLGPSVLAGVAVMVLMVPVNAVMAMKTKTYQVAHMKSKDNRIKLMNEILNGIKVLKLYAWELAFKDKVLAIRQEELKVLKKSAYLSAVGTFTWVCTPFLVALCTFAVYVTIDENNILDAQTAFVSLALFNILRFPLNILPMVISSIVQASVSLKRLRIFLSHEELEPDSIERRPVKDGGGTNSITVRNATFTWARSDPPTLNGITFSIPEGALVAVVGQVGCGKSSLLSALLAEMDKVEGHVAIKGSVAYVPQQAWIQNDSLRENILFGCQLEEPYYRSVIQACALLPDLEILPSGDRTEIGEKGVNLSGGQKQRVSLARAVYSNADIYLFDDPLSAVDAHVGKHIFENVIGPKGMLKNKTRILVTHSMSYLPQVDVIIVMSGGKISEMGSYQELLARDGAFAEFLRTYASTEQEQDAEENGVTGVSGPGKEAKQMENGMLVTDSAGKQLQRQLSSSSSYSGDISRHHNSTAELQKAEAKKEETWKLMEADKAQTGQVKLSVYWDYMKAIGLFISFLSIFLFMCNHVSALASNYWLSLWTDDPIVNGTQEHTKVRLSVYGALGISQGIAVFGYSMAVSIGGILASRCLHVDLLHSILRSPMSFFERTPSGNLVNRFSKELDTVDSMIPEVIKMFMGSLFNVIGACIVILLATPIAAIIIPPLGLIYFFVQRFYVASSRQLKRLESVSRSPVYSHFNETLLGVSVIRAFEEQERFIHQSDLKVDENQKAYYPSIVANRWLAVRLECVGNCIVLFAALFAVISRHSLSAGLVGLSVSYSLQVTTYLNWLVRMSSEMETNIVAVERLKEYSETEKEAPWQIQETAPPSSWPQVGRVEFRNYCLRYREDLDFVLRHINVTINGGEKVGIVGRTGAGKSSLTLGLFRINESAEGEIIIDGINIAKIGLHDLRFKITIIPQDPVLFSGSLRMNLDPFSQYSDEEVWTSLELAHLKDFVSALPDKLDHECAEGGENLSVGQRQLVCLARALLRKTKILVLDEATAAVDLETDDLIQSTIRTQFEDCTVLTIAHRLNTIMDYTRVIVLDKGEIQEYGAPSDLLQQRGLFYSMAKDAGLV
# Assay Remarks: Inhibition of ABCC1 in human […] cells preincubated for 30 mins followed by calcein AM addition and measured every 60 secs for 1 hr by fluorescence assay
pIC50: −log10 of the molar value.
Reported Endpoint: pIC50

> print(dat)
                               entry.smiles                                    target  reported.endpoint  numeric.value
1  COc1ccc(NC(=O)COc2ccc(C(=O)/C=C/c3cc(OC)c(OC)c(OC)c3)cc2)cc1OC  Multidrug resistance-associated protein 1 (Homo sapiens, UniProt P33527)              pIC50           4.90

* * *

# Target: ATP-dependent translocase ABCB1 (Homo sapiens, UniProt P08183)
# Sequence (P08183 whole entry): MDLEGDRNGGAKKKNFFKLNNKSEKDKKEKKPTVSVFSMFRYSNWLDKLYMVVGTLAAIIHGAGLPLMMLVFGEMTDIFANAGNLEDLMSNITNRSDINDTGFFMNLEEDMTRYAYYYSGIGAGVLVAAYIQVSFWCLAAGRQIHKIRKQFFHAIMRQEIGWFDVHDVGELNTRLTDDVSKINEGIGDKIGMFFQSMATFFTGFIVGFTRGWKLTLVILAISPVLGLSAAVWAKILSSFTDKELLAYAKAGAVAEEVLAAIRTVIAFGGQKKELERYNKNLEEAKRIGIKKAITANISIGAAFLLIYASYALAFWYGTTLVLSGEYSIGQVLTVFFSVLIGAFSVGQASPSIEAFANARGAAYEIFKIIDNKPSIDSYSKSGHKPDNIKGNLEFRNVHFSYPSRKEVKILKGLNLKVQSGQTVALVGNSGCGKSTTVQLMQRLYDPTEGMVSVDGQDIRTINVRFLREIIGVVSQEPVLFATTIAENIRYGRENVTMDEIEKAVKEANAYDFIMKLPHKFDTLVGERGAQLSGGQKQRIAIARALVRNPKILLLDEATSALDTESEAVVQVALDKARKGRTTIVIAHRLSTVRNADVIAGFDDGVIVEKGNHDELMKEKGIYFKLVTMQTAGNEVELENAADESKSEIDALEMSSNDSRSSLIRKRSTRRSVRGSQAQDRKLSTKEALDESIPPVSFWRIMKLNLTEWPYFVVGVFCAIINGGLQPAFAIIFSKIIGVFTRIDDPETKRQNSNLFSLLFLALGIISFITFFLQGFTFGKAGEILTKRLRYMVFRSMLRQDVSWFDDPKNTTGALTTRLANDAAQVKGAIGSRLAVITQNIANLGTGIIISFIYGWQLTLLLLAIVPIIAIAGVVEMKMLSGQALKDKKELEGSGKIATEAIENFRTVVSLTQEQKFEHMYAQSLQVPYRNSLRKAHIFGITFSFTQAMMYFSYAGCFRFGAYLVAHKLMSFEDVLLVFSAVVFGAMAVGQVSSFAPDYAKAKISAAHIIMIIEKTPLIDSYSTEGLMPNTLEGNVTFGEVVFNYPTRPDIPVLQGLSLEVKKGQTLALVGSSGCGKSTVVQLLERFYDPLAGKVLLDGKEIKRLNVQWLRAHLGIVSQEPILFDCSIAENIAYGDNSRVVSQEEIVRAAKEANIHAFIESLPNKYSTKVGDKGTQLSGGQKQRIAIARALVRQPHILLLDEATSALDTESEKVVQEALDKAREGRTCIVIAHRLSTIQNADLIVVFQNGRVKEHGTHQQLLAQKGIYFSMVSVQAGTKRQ
# Assay Remarks: Inhibition of ABCB1 in human A2780/ADR cells preincubated for 30 mins followed by calcein AM addition and measured every 60 secs for 1 hr by fluorescence assay
pIC50: −log10 of the molar value.
Reported Endpoint: pIC50

> print(dat)
                               entry.smiles                                    target  numeric.value
1  O=C(COc1c(-c2ccccc2Cl)oc2ccccc2c1=O)Nc1ccc2c(c1)COC2=O  ATP-dependent translocase ABCB1 (Homo sapiens, UniProt P08183)           5.30
2  Cc1ccc(-c2c(OCC(=O)Nc3cccc4ccccc34)oc3ccccc3c2=O)cc1  ATP-dependent translocase ABCB1 (Homo sapiens, UniProt P08183)           5.72
3  COc1cc(/C=C/C(=O)c2cccc(OCC(=O)Nc3ccc4c(c3)COC4=O)c2)cc(OC)c1OC  ATP-dependent translocase ABCB1 (Homo sapiens, UniProt P08183)           4.93
4  COc1ccc(-c2c(OCC(=O)Nc3cccc4ccccc34)oc3ccccc3c2=O)cc1  ATP-dependent translocase ABCB1 (Homo sapiens, UniProt P08183)           5.85
5  COc1ccc(-c2c(OCC(=O)Nc3cccc4ccccc34)oc3ccccc3c2=O)cc1OC  ATP-dependent translocase ABCB1 (Homo sapiens, UniProt P08183)           5.27

* * *

# Target: Broad substrate specificity ATP-binding cassette transporter ABCG2 (Homo sapiens, UniProt Q9UNQ0)
# Sequence (Q9UNQ0 whole entry): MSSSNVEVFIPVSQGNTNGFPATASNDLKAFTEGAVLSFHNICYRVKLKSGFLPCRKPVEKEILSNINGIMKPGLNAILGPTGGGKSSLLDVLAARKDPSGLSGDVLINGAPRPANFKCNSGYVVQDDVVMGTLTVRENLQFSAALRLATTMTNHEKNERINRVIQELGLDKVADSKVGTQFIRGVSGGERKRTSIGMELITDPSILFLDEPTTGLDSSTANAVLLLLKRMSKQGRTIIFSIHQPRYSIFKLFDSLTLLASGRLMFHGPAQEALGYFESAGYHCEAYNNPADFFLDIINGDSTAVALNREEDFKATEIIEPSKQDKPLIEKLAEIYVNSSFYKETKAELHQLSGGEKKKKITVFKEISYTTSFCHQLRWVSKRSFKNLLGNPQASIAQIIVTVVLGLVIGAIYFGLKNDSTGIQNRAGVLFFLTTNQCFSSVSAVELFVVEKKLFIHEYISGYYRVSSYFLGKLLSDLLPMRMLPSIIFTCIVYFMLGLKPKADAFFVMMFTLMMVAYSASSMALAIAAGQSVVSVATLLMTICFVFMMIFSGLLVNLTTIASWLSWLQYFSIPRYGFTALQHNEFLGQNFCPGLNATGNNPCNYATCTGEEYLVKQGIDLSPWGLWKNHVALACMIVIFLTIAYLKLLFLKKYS
# Assay Remarks: Inhibition of ABCG2 (unknown origin) expressed in MDCK II BCRP cells assessed as effect on heophorbide A accumulation at 5 to 10 uM after 120 mins by flow cytometric analysis relative to control
# Type: cell-based
# Measurement Conditions: 2 h
Reported Endpoint: inhibition (INH)

> print(dat)
                                entry.smiles      result
 1  O=C(/C=C/c1ccc(OCc2ccc(Cl)cc2Cl)cc1)c1ccc(O)cc1  Not Active
 2  O=C(COc1ccc(/C=C/C(=O)c2ccc(F)cc2)cc1)Nc1ccc2c(c1)COC2=O  Not Active
 3  Cc1ccc(-c2c(OCC(=O)Nc3ccc(Br)cc3)oc3ccccc3c2=O)cc1  Not Active
 4  COc1cccc(/C=C/C(=O)c2ccc(OCC(=O)Nc3ccc4c(c3)COC4=O)cc2)c1  Not Active
 5  Cc1ccc(-c2oc3ccccc3c(=O)c2OCC(=O)Nc2ccc3c(c2)COC3=O)cc1  Not Active
 6  O=C(COc1c(-c2ccco2)oc2ccccc2c1=O)Nc1ccc2c(c1)COC2=O  Not Active
 7  O=C(COc1ccc(C(=O)/C=C/c2cccs2)cc1)Nc1ccc2c(c1)COC2=O  Not Active
 8  O=C(COc1ccc(C(=O)/C=C/c2ccccc2)cc1)Nc1ccc2c(c1)COC2=O  Not Active
 9  CCCCOc1ccc(/C=C/C(=O)c2ccc(OCC(=O)Nc3ccc4c(c3)COC4=O)cc2)cc1  Not Active
10  COc1ccc(-c2oc3ccccc3c(=O)c2OCC(=O)Nc2ccc3c(c2)COC3=O)cc1  Not Active
11  O=C(COc1ccc(C(=O)/C=C/c2c(F)cccc2F)cc1)NCc1ccc2c(c1)OCO2  Not Active
12  O=C(COc1ccc(C(=O)/C=C/c2ccc([N+](=O)[O-])cc2)cc1)Nc1ccc2c(c1)COC2=O  Not Active
13  O=C(COc1ccc(C(=O)/C=C/c2ccc(OCc3ccc(Cl)cc3Cl)cc2)cc1)Nc1ccc2c(c1)COC2=O  Not Active
14  O=C(COc1ccc(C(=O)/C=C/c2ccco2)cc1)Nc1ccc2c(c1)COC2=O  Not Active
15  CCOc1ccc(/C=C/C(=O)c2ccc(OCC(=O)NCc3ccc4c(c3)OCO4)cc2)cc1  Not Active
16  COc1ccc(-c2oc3ccccc3c(=O)c2OCC(=O)Nc2ccc3c(c2)COC3=O)cc1OC  Not Active
